test system: L1210 leukemia ip in BDF1 mice, survival T/C; experiment: NCI In Vivo Anticancer Drug Screen. Data for tumor model L1210 Leukemia (intraperitoneal) in B6D2F1 (BDF1) mice; conditions: endpoint: mean survival time; dose: 12.5 mg/kg/injection; schedule: Q01DX009 (ip); vehicle: saline; higher = longer survival
Inconclusive results and toxic doses are left out.
This section presents compounds with their documented T/C values.

Consider the reported T/C for these compounds:
CCNC(C)(C)C(SSSC(c1ccc(C(F)(F)F)cc1)C(C)(C)NCC)c1ccc(C(F)(F)F)cc1 (centres undefined)
96 % of control
COc1cc(NS(C)(=O)=O)ccc1Nc1c2ccccc2nc2ccccc12
103 % of control
SC1(S)CN2CCC1CC2
94 % of control

Ask: Would you kindly share the measured T/C for `COc1cc([C@@H]2c3cc4c(cc3C[C@H]3COC(=O)[C@@H]32)OCO4)cc(OC)c1OC` ?
Result: 110 % of control

Ask: Would you kindly share the measured T/C for CN1CC(C(=O)NC(C)(C)C)CC(c2ccccc2)C1 (centres undefined) ?
Result: 86 % of control

Ask: Would you kindly share the measured T/C for `CCCCCCCCN1CCCNCC1` ?
Result: 102 % of control

Ask: Would you kindly share the measured T/C for C(COCC1CO1)OCC1CO1 (centres undefined) ?
Result: 110 % of control

Ask: Would you kindly share the measured T/C for `COc1ccc2cc[n+](C)cc2c1` ?
Result: 101 % of control

Ask: Would you kindly share the measured T/C for CN1CCCCC1CCN1c2ccccc2Sc2ccc(Br)cc21 (centres undefined) ?
Result: 101 % of control

----------
tested on: L1210 leukemia ip in BDF1 mice, survival T/C; experiment: NCI In Vivo Anticancer Drug Screen. Data for tumor model L1210 Leukemia (intraperitoneal) in B6D2F1 (BDF1) mice; settings: endpoint: mean survival time; dose: 200.0 mg/kg/injection; schedule: Q04DX003 (ip); vehicle: Klucel (hydroxypropylcellulose) (HPC); higher = longer survival
Inconclusive results and toxic doses are left out.
This section presents compounds with their documented T/C values.

Consider the reported T/C for these compounds:
Cc1cc2[nH]c(=O)c(=O)[nH]c2cc1C
100 % of control
Clc1ccc(C2=NC3=CC(Cl)C=CC3=CC2C2CO2)cc1 (stereo not drawn)
94 % of control
C=C(C)C(=O)Nc1c(C)cccc1C
94 % of control
Nc1nc2nc(N=Nc3ccc(C(=O)O)c(O)c3)[nH]c2c(=O)[nH]1
88 % of control
CNC(=S)N/N=C(\C)CSC/C(C)=N/NC(=S)NC
107 % of control

Ask: Would you kindly share the measured T/C for `Cc1ccc(N=C(c2ccccc2)c2ccc([N+](=O)[O-])cc2)cc1` ?
Result: 93 % of control

Ask: Would you kindly share the measured T/C for `O=S(=O)(Cl)c1ccccc1S(=O)(=O)Cl` ?
Result: 93 % of control

----------
test system: L1210 leukemia ip in BDF1 mice, survival T/C; test: NCI In Vivo Anticancer Drug Screen. Data for tumor model L1210 Leukemia (intraperitoneal) in B6D2F1 (BDF1) mice; settings: endpoint: mean survival time; dose: 100.0 mg/kg/injection; schedule: Q04DX002 (ip); vehicle: saline; higher = longer survival
Inconclusive results and toxic doses are left out.
Measured Parameter: T/C

Consider the reported T/C for these molecules:
O=C(O)c1nnn(Cc2ccccc2)c1C(=O)O
104 % of control
CN(C)CCCCNc1ccc(NCCCCN(C)C)c2c1C(=O)c1c(O)ccc(O)c1C2=O
99 % of control
CCCCSC(C)=N
97 % of control

Ask: Would you kindly share the measured T/C for `O=S(=O)(O)N(O)S(=O)(=O)O` ?
Result: 97 % of control

Ask: Would you kindly share the measured T/C for CC1(C)OCC(C(O)C(O)C2COC(C)(C)O2)O1 (centres undefined) ?
Result: 96 % of control

Ask: Would you kindly share the measured T/C for `Cn1c(=O)c2c(ncn2CCSCC2=NS(=O)(=O)c3cc(S(N)(=O)=O)c(C(F)(F)F)cc3N2)n(C)c1=O` ?
Result: 97 % of control
